- Tested on: filaggrin
- runDescription: Gene expression level of filaggrin (RNA separation and RT-PCR)
- Type: cell-based
- condition: neonatal keratinocytes, 1 ppm, 2 days, corrected to RPL13A
- Protocol: Neonatal keratinocytes (obtained from Lonza) was dispensed into a 60 mm cell culture dish at a density of 1.25×10^6 cells/dish using KGM medium, and then cultured at 37° C. in a 5% CO2 incubator up to about 80% confluency. Then, eight compounds including PGG from soybean, green tea, ginseng, and other natural products were selected as test substances (Table 1), and the cells were treated with each of these compounds at 1 ppm and cultured for 2 days. […]
Increase in filaggrin expression(%) listing for selected compounds.
Hi! Could you send only the number? It should be in %, unit omitted.

Oc1cc(O)c2c(c1)O[C@H](c1ccc(O)c(O)c1)[C@H](O)C2 [(−)-Epicatechin(EC), (−)-Epicatechin]	108

In: Looking for the measured Increase in filaggrin expression(%) of O=c1c(-c2ccc(O)c(O)c2)coc2cc(O)ccc12 [7,3′,4′-trihydroxyisoflavone] , can you help?
Out: 110

In: Given the compound COc1cc([C@H]2OC[C@H]3[C@@H]2CO[C@@H]3c2cc(OC)c(O)c(OC)c2)cc(OC)c1O , what is its reported Increase in filaggrin expression(%)?
Out: 103

---

- Tested on: filaggrin
- runDescription: Gene expression level of filaggrin (RNA separation and RT-PCR)
- Type: cell-based
- condition: neonatal keratinocytes, 1 ppm, 2 days, corrected to RPL13A
endpoint: Increase in filaggrin expression(%)
The answer is to be given in %; state only the numeric part.

These recorded examples may help you get a feel for the data.
O=c1c(O[C@@H]2O[C@H](CO)[C@@H](O)[C@H](O)[C@H]2O)c(-c2ccc(O)cc2)oc2cc(O)cc(O)c12	105
C[C@@]12C[C@@]3(O)O[C@@H](O1)[C@]1(COC(=O)c4ccccc4)[C@H]3C[C@@]12O[C@@H]1O[C@H](CO)[C@@H](O)[C@H](O)[C@H]1O	116

In: Find the measured Increase in filaggrin expression(%): item O=C(OC[C@H]1O[C@@H](OC(=O)c2cc(O)c(O)c(O)c2)[C@H](OC(=O)c2cc(O)c(O)c(O)c2)[C@@H](OC(=O)c2cc(O)c(O)c(O)c2)[C@@H]1OC(=O)c1cc(O)c(O)c(O)c1)c1cc(O)c(O)c(O)c1 , target or system filaggrin.
Out: 229

In: Please tell me: Increase in filaggrin expression(%) of O=c1c(-c2ccc(O)cc2)coc2cc(O)c(O)cc12 [6,7,4′-trihydroxyisoflavone] , system filaggrin?
Out: 103

In: Entry C[C@]12C[C@@H](O)[C@@H]3C[C@@]1(O[C@@H]1O[C@H](CO)[C@@H](O)[C@H](O)[C@H]1O)[C@@]3(COC(=O)c1ccccc1)C(=O)O2 , system filaggrin: what Increase in filaggrin expression(%) was measured?
Out: 107
